# TGI annotations
Test system: HOP-92 NSCLC
run-description: NCI tumour cell line growth inhibition, 48 h

molecule: O=C(O)C12CC3(C(=O)O)CC(C(=O)O)(CC(C(=O)O)(C1)C3=O)C2=O
TGI: > 100 µM
--
molecule: COC1=C(Br)C(=O)c2nc(C)ccc2C1=O
TGI: 15.5 µM
--
molecule: CCOC(=O)/C(=C/c1cccc(C#N)c1)N(CC)CC
TGI: > 100 µM
--
molecule: C=C(C)[C@@]1(O[Si](C)(C)C)CCCC[C@@H]1CC(Sc1ccccc1)Sc1ccccc1
TGI: 26 µM
--
molecule: OCC(O)CNc1ccnc2cc(Cl)ccc12 (centres undefined)
TGI: > 100 µM
--
molecule: COc1ccc2c(Oc3ccc(NC(=O)c4c(C)n(CC(C)(C)O)n(-c5ccccc5)c4=O)nc3)ccnc2c1
TGI: 16.7 µM
--
molecule: COc1cc(CC(C)N)ccc1O (centres undefined)
TGI: > 100 µM
--
molecule: CC/C=C/C/C=C/C/C=C/C/C=C/C/C=C/C/C=C/CCC(=O)Nc1ccn([C@@H]2O[C@H](CO)[C@@H](O)C2(F)F)c(=O)n1
TGI: 30.5 µM
--
molecule: C[C@H]1CCC/C=C/[C@@H]2C[C@H](O)C[C@H]2[C@H](O)[C@@H](SCC(O)CO)CC(=O)O1 (some centres undefined)
TGI: > 100 µM
--
molecule: C[C@]1(S(=O)(=O)c2ccccc2)C[C@H]2N(Cc3ccccc3)[C@@H]1CCC21OCCO1
TGI: > 100 µM
--
molecule: O=c1c2ccccc2nc(-c2ccccc2)n1NC(=S)Nc1ccccc1
TGI: > 100 µM
--
molecule: COc1c(O)c(O)cc2c1-c1ccc(OC)c(=O)cc1C(NC(C)=O)CC2 (centres undefined)
TGI: 17.8 µM
--
molecule: O=C([CH-]C(=O)c1ccccc1)c1ccccc1.O=C([CH-]C(=O)c1ccccc1)c1ccccc1.[O]=[U+2]=[O]
TGI: 6.18 µM
--
molecule: Cc1nn(C(=O)c2ccc(Cl)cc2)c2c1C(c1ccc(O)cc1)SC(N)=N2 (centres undefined)
TGI: > 10 µM

====

Test system: A498 renal
run-description: NCI tumour cell line growth inhibition, 48 h

compound: O=C(O)C12CC3(C(=O)O)CC(C(=O)O)(CC(C(=O)O)(C1)C3=O)C2=O
TGI: > 100 µM
--
compound: Oc1ccc(Br)cc1C=Nc1ccc(N=Cc2cc(Br)ccc2O)cc1
TGI: > 100 µM
--
compound: COc1cc(OCc2ccc3nc(OC)c(OC)nc3c2)cc(OC)c1OC
TGI: > 10 µM
--
compound: Cc1cn([C@H]2C[C@](C)(CO)N(C)O2)c(=O)[nH]c1=O
TGI: > 100 µM
--
compound: Nc1nc(N)c2cc(CNc3ccc(C(=O)NC(CC(=O)O)C(=O)O)c(Cl)c3)ccc2n1 (stereo unspecified)
TGI: > 500 µM
--
compound: O=C(OCC(OC(=O)c1ccccc1)C(OC(=O)c1ccccc1)C(OC(=O)c1ccccc1)c1cnn(-c2ccccc2)n1)c1ccccc1 (stereo unspecified)
TGI: > 100 µM

====

Test system: UACC-257 melanoma
run-description: NCI tumour cell line growth inhibition, 48 h
Reported TGI values for the following compounds.

compound: O=C(N/N=C/c1c(Cl)cccc1Cl)c1ccc(C(F)(F)F)nc1Nc1cccc(C(F)(F)F)c1
TGI: > 100 µM
//
compound: c1ccc(-c2cnc(-c3ccc(-c4ncc(-c5ccccc5)o4)cc3)o2)cc1
TGI: > 100 µM
//
compound: NS(=O)(=O)c1ccc(NC(NC(=O)C(C(F)(F)F)C(F)(F)F)(C(F)(F)F)C(F)(F)F)cc1
TGI: > 100 µM
//
compound: c1ccc(CSc2nc3ccccc3nc2-c2cccs2)cc1
TGI: > 100 µM
//
compound: CC(O)CC(O)(C(F)(F)F)C(F)(F)F (stereo not given)
TGI: > 10 µM
//
compound: N#CC(C(=O)CCC(=O)Nc1cccc(C(F)(F)F)c1)c1ccc(Cl)cc1 (stereo not given)
TGI: > 100 µM
//
compound: N#Cc1c(C#N)c(-c2ccccc2)n(-c2ccccc2)c1N
TGI: > 100 µM
//
compound: Cc1ccc(Nc2nnc(-c3ccc4c(c3)OCO4)o2)c(C)c1
TGI: > 100 µM
//
compound: COc1cc(OCc2ccc3nc(OC)c(OC)nc3c2)cc(OC)c1OC
TGI: > 10 µM
//
compound: O/C(=C\c1nc2ccccc2nc1NC12CC3CC(CC(C3)C1)C2)c1ccc(Br)cc1
TGI: > 10 µM
//
compound: CN1CCN(c2ccc(Nc3ncc4cc(C#N)c(=O)n(C5CCCC5)c4n3)cc2)CC1
TGI: > 100 µM
//
compound: S=C1CC(c2ccccc2)Sc2ccc(Cl)cc2N1 (stereo not given)
TGI: > 100 µM
//
compound: O=c1nc(-c2ccccc2)cc(-c2ccccc2O)[nH]1
TGI: > 100 µM
//
compound: CC(=O)OCCOCNC(=S)N/N=C/c1ccc(Br)s1
TGI: > 100 µM
//
compound: c1csc(-c2c3ccc(=[N+]4CCCCC4)cc-3oc3cc(N4CCCCC4)ccc23)c1
TGI: 0.321 µM
//
compound: O=C1CC(Sc2nc3ccc(I)cc3c(=O)n2Cc2ccccc2)C(=O)NN1 (stereo not given)
TGI: 35.3 µM
//
compound: O=C1CCc2ccc3c(c21)CC1(Cc2ccccc2C1)C3
TGI: 35.7 µM
//
compound: Cc1ccc(S(=O)(=O)NC(=O)NC2=NC(C)(C)N(c3ccc(Cl)c(Cl)c3)C(N)=N2)cc1
TGI: > 100 µM
//
compound: COc1cc2c(cc1OC)C13CC[N+]4(C)CC5=CCOC6CC(=O)N2C1C6C5CC34[O-] (stereo not given)
TGI: > 100 µM
//
compound: CC(C)CCn1nc(N)c2nc3ccccc3nc21
TGI: > 100 µM
//
compound: Cc1cc(C(C)(C)C)cc(Cc2cc(C(C)(C)C)cc(Cc3cc(C(C)(C)C)cc(C)c3O)c2O)c1O
TGI: 20.8 µM
//
compound: COc1cc([C@@H]2c3cc4c(cc3[C@@H](c3c(O)cc(O)c5c3O[C@H](c3ccc(O)c(O)c3)[C@@H](O)C5)[C@H]3COC(=O)[C@H]23)OCO4)cc(OC)c1O
TGI: > 100 µM
//
compound: COc1cc(C2C(C(=O)Nc3cc(F)c(F)cc3F)=C(C)NC(C)=C2C(=O)Nc2cc(F)c(F)cc2F)ccc1O
TGI: 54.8 µM
//
compound: Cc1cn([C@H]2C[C@](C)(CO)N(C)O2)c(=O)[nH]c1=O
TGI: > 100 µM
//
compound: CC/C(Cl)=N\OC(=O)Nc1ccc(F)c([N+](=O)[O-])c1
TGI: 35.1 µM

====

Test system: HS 578T breast
run-description: NCI tumour cell line growth inhibition, 48 h

compound: O=[N+]([O-])c1ccc(CSCc2ccc(Cl)cc2)cc1
TGI: > 100 µM
--
compound: Cc1nn(C(=O)c2ccc(Cl)cc2)c2c1C(c1ccc(O)cc1)SC(N)=N2 (stereo unspecified)
TGI: > 10 µM
--
compound: Cc1ccc(S(=O)(=O)NC(=O)NNc2ccc(F)cc2)cc1
TGI: > 100 µM
--
compound: COC(=O)c1cc(C)ccc1CC(Cc1ccc(C)cc1)C(=O)OC (stereo unspecified)
TGI: > 100 µM
--
compound: CC(C)CCn1nc(N)c2nc3ccccc3nc21
TGI: > 100 µM
--
compound: Cc1cc2nc(-c3cc(C(C)(C)C)c(O)c(C(C)(C)C)c3)[nH]c2cc1C
TGI: > 100 µM

====

System: CCRF-CEM leukemia
run-description: NCI tumour cell line growth inhibition, 48 h
Each item that follows carries a reported TGI.

substance-smiles: O=C(O)CSC(NC(=O)C(C(F)(F)F)C(F)(F)F)(C(F)(F)F)C(F)(F)F
TGI: > 100 µM

substance-smiles: c1ccc(-c2cnc(-c3ccc(-c4ncc(-c5ccccc5)o4)cc3)o2)cc1
TGI: > 100 µM

substance-smiles: C[C@]1(S(=O)(=O)c2ccccc2)C[C@H]2N(Cc3ccccc3)[C@@H]1CCC21OCCO1
TGI: > 100 µM

====

Test system: IGROV1 ovarian
run-description: NCI tumour cell line growth inhibition, 48 h
Where a SMILES comes first, the peptide text is derived from it. The star is where a group is joined. Bn = c1ccc(C*)cc1
Listing: TGI of selected molecules

molecule: COc1cc(OCc2ccc3nc(OC)c(OC)nc3c2)cc(OC)c1OC
target-desc: IGROV1 ovarian
TGI: > 10 µM

molecule: Cn1c(=O)c2c(ncn2CC(=O)Nc2ccc(-c3ccccc3)nn2)n(C)c1=O
target-desc: IGROV1 ovarian
TGI: > 100 µM

molecule: NC(=O)c1ncn2c1NC(=O)CC2
target-desc: IGROV1 ovarian
TGI: > 100 µM

molecule: COC(=O)C(CC(C)C)NC(=O)C(N)Cc1ccc(OCc2ccccc2)cc1 (stereo unspecified) (H-Tyr(Bn)-Leu-OMe; configuration not given here)
target-desc: IGROV1 ovarian
TGI: > 10 µM

molecule: Nc1ccccc1SC1CC(=O)N(c2ccc(Cl)c(Cl)c2)C1=O (stereo unspecified)
target-desc: IGROV1 ovarian
TGI: > 100 µM

molecule: O/C(=C\c1nc2ccccc2nc1NC12CC3CC(CC(C3)C1)C2)c1ccc(Br)cc1
target-desc: IGROV1 ovarian
TGI: > 10 µM
